- experimental.target: Protein cereblon/Cyclin-dependent kinase 9 (Homo sapiens, UniProt P50750+Q96SW2)
- experiment.summary: PROTAC activity at CRBN/CDK9 in human MOLM-13 cells assessed as induction of CDK9 degradation incubated for 6 hrs by Western blot analysis
- Sequence (P50750 whole entry): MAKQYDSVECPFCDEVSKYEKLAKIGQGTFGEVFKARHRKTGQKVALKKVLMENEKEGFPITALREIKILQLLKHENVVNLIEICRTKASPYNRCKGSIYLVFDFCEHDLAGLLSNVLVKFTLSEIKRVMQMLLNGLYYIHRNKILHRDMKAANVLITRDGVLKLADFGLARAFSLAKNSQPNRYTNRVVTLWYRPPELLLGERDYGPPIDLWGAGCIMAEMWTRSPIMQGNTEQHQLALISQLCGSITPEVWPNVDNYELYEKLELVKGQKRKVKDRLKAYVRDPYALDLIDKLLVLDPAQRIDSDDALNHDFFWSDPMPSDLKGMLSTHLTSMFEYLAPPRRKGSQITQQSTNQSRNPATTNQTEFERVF
- Sequence (Q96SW2 whole entry): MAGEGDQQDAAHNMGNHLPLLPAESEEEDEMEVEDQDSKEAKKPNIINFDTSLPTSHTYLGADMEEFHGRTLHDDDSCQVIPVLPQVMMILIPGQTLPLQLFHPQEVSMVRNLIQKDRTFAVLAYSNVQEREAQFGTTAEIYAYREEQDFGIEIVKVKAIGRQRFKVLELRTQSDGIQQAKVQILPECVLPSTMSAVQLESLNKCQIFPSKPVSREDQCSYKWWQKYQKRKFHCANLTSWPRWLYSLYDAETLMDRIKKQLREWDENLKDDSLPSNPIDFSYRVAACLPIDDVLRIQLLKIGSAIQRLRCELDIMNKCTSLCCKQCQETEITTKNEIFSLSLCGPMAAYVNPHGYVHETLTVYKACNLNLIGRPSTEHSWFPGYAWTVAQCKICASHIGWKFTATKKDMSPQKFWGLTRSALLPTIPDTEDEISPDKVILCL
Lab note: anything with DC50 below 60 nM is marked T; values at 60 nM or higher are marked F.

{"compound": "O=C1CCC(N2C(=O)c3cccc(OCCCCn4cc(CCCCCCN5CCC(NC(=O)c6n[nH]cc6NC(=O)c6c(Cl)cccc6Cl)CC5)nn4)c3C2=O)C(=O)N1 (stereo unspecified)", "experimental.target": "Protein cereblon/Cyclin-dependent kinase 9 (Homo sapiens, UniProt P50750+Q96SW2)", "class.name": "F"}
{"compound": "O=C1CCC(N2C(=O)c3cccc(OCCCCn4cc(CCCCN5CCC(NC(=O)c6n[nH]cc6NC(=O)c6c(Cl)cccc6Cl)CC5)nn4)c3C2=O)C(=O)N1 (stereo unspecified)", "experimental.target": "Protein cereblon/Cyclin-dependent kinase 9 (Homo sapiens, UniProt P50750+Q96SW2)", "class.name": "F"}
{"compound": "O=C1CCC(N2C(=O)c3cccc(OCCCCCCCn4cc(CCCCCN5CCC(NC(=O)c6n[nH]cc6NC(=O)c6c(Cl)cccc6Cl)CC5)nn4)c3C2=O)C(=O)N1 (stereo unspecified)", "experimental.target": "Protein cereblon/Cyclin-dependent kinase 9 (Homo sapiens, UniProt P50750+Q96SW2)", "class.name": "F"}
{"compound": "O=C1CCC(N2C(=O)c3cccc(OCCCCn4cc(CCCCCCCCCCN5CCC(NC(=O)c6n[nH]cc6NC(=O)c6c(Cl)cccc6Cl)CC5)nn4)c3C2=O)C(=O)N1 (stereo unspecified)", "experimental.target": "Protein cereblon/Cyclin-dependent kinase 9 (Homo sapiens, UniProt P50750+Q96SW2)", "class.name": "T"}
{"compound": "O=C1CCC(N2C(=O)c3cccc(OCCCCn4cc(CCCCCN5CCC(NC(=O)c6n[nH]cc6NC(=O)c6c(Cl)cccc6Cl)CC5)nn4)c3C2=O)C(=O)N1 (stereo unspecified)", "experimental.target": "Protein cereblon/Cyclin-dependent kinase 9 (Homo sapiens, UniProt P50750+Q96SW2)", "class.name": "F"}

====

- experiment.summary: Kinetic solubility of the compound at pH 7.4 incubated for 1.5 hrs under shaking condition by UV plate reader analysis
- Format: physicochemical
- measurement.context: buffer, read-out: Kinetic_solubility
property.measured: solubility kinetic at 1.5 h (µM)

{"molecule": "O=C1CCC(N2C(=O)c3cccc(OCCCCCCCCn4cc(CCCCCCN5CCC(NC(=O)c6n[nH]cc6NC(=O)c6c(Cl)cccc6Cl)CC5)nn4)c3C2=O)C(=O)N1 (stereo unspecified)", "property.measured": "solubility kinetic at 1.5 h", "assay.result": 2.38}
{"molecule": "O=C1CCC(N2C(=O)c3cccc(OCCCCn4cc(CCCCCN5CCC(NC(=O)c6n[nH]cc6NC(=O)c6c(Cl)cccc6Cl)CC5)nn4)c3C2=O)C(=O)N1 (stereo unspecified)", "property.measured": "solubility kinetic at 1.5 h", "assay.result": 31.3}
{"molecule": "O=C1CCC(N2C(=O)c3cccc(OCCCCCCCn4cc(CCCCCCCN5CCC(NC(=O)c6n[nH]cc6NC(=O)c6c(Cl)cccc6Cl)CC5)nn4)c3C2=O)C(=O)N1 (stereo unspecified)", "property.measured": "solubility kinetic at 1.5 h", "assay.result": 4.7}
{"molecule": "O=C1CCC(N2C(=O)c3cccc(OCCCCn4cc(CCCCN5CCC(NC(=O)c6n[nH]cc6NC(=O)c6c(Cl)cccc6Cl)CC5)nn4)c3C2=O)C(=O)N1 (stereo unspecified)", "property.measured": "solubility kinetic at 1.5 h", "assay.result": 40.9}
{"molecule": "O=C1CCC(N2C(=O)c3cccc(OCCCCn4cc(CCCCCCN5CCC(NC(=O)c6n[nH]cc6NC(=O)c6c(Cl)cccc6Cl)CC5)nn4)c3C2=O)C(=O)N1 (stereo unspecified)", "property.measured": "solubility kinetic at 1.5 h", "assay.result": 12.9}
{"molecule": "O=C1CCC(N2C(=O)c3cccc(OCCCCCn4cc(CCCCN5CCC(NC(=O)c6n[nH]cc6NC(=O)c6c(Cl)cccc6Cl)CC5)nn4)c3C2=O)C(=O)N1 (stereo unspecified)", "property.measured": "solubility kinetic at 1.5 h", "assay.result": 12.4}

====

- experiment.summary: Kinetic solubility of the compound at pH 7.4 incubated for 1.5 hrs under shaking condition by UV plate reader analysis
- Type: physicochemical
- measurement.context: buffer, read-out: Kinetic_solubility
Kindly return 1 (yes) if reported solubility kinetic at 1.5 h is no lower than 6 µM; return 0 (no) if it is lower.

{"compound": "O=C1CCC(N2C(=O)c3cccc(OCCCCCCCCn4cc(CCN5CCC(NC(=O)c6n[nH]cc6NC(=O)c6c(Cl)cccc6Cl)CC5)nn4)c3C2=O)C(=O)N1 (stereo not given)", "class.name": "0 (no)"}
{"compound": "O=C1CCC(N2C(=O)c3cccc(OCCCCn4cc(CCCCCCCCCCN5CCC(NC(=O)c6n[nH]cc6NC(=O)c6c(Cl)cccc6Cl)CC5)nn4)c3C2=O)C(=O)N1 (stereo not given)", "class.name": "0 (no)"}
{"compound": "O=C(NC1CCNCC1)c1n[nH]cc1NC(=O)c1c(Cl)cccc1Cl", "class.name": "1 (yes)"}
{"compound": "O=C1CCC(N2C(=O)c3cccc(OCCCCCCCn4cc(CCCCCN5CCC(NC(=O)c6n[nH]cc6NC(=O)c6c(Cl)cccc6Cl)CC5)nn4)c3C2=O)C(=O)N1 (stereo not given)", "class.name": "0 (no)"}
{"compound": "O=C1CCC(N2C(=O)c3cccc(OCCCCCn4cc(CCCCCN5CCC(NC(=O)c6n[nH]cc6NC(=O)c6c(Cl)cccc6Cl)CC5)nn4)c3C2=O)C(=O)N1 (stereo not given)", "class.name": "1 (yes)"}

====

Emax: recorded values
- experimental.target: Protein cereblon/Cyclin-dependent kinase 9 (Homo sapiens, UniProt P50750+Q96SW2)
- experiment.summary: PROTAC activity at CRBN/CDK9 in human MOLM-13 cells assessed as induction of CDK9 degradation by measuring maximal efficacy at 0.01 to 5 uM incubated for 6 hrs by Western blot analysis relative to control
- measurement.context: dose 0.01-5 µM
- Sequence (P50750 whole entry, looked up): as the sequence (P50750 whole entry) above
- Sequence (Q96SW2 whole entry, looked up): as the sequence (Q96SW2 whole entry) above

{"compound": "O=C1CCC(N2C(=O)c3cccc(OCCCCCCCn4cc(CCCCCN5CCC(NC(=O)c6n[nH]cc6NC(=O)c6c(Cl)cccc6Cl)CC5)nn4)c3C2=O)C(=O)N1 (stereo unspecified)", "value.unit": "%", "Emax": 70.1}
{"compound": "O=C1CCC(N2C(=O)c3cccc(OCCCCCCCn4cc(CCCCCCCN5CCC(NC(=O)c6n[nH]cc6NC(=O)c6c(Cl)cccc6Cl)CC5)nn4)c3C2=O)C(=O)N1 (stereo unspecified)", "value.unit": "%", "Emax": 78}
{"compound": "O=C1CCC(N2C(=O)c3cccc(OCCCCCn4cc(CCCCN5CCC(NC(=O)c6n[nH]cc6NC(=O)c6c(Cl)cccc6Cl)CC5)nn4)c3C2=O)C(=O)N1 (stereo unspecified)", "value.unit": "%", "Emax": 67.5}
{"compound": "O=C1CCC(N2C(=O)c3cccc(OCCCCCCCCn4cc(CCN5CCC(NC(=O)c6n[nH]cc6NC(=O)c6c(Cl)cccc6Cl)CC5)nn4)c3C2=O)C(=O)N1 (stereo unspecified)", "value.unit": "%", "Emax": 88.3}
{"compound": "O=C1CCC(N2C(=O)c3cccc(OCCCCn4cc(CCCCN5CCC(NC(=O)c6n[nH]cc6NC(=O)c6c(Cl)cccc6Cl)CC5)nn4)c3C2=O)C(=O)N1 (stereo unspecified)", "value.unit": "%", "Emax": 79.1}
{"compound": "O=C1CCC(N2C(=O)c3cccc(OCCCCn4cc(CCCCCCCCCCN5CCC(NC(=O)c6n[nH]cc6NC(=O)c6c(Cl)cccc6Cl)CC5)nn4)c3C2=O)C(=O)N1 (stereo unspecified)", "value.unit": "%", "Emax": 88.6}

====

- Test system: MV4-11
- experiment.summary: Antiproliferative activity against human MV4-11 cells assessed as inhibition of cell growth measured after 48 hrs by MTS assay
- Assay type: functional, cell-based
- measurement.context: MV4-11, 48 h, read-out: IC50
pIC50: −log10 of the molar value.
Kindly return 1.0 if reported pIC50 is no lower than 7; return 0.0 if it is lower.

{"molecule": "O=C1CCC(N2C(=O)c3cccc(OCCCCn4cc(CCCCN5CCC(NC(=O)c6n[nH]cc6NC(=O)c6c(Cl)cccc6Cl)CC5)nn4)c3C2=O)C(=O)N1 (stereo unspecified)", "class.name": 0.0}
{"molecule": "O=C1CCC(N2C(=O)c3cccc(OCCCCCCCCn4cc(CCN5CCC(NC(=O)c6n[nH]cc6NC(=O)c6c(Cl)cccc6Cl)CC5)nn4)c3C2=O)C(=O)N1 (stereo unspecified)", "class.name": 1.0}
{"molecule": "O=C1CCC(N2C(=O)c3cccc(OCCCCn4cc(CCCCCN5CCC(NC(=O)c6n[nH]cc6NC(=O)c6c(Cl)cccc6Cl)CC5)nn4)c3C2=O)C(=O)N1 (stereo unspecified)", "class.name": 0.0}
{"molecule": "O=C1CCC(N2C(=O)c3cccc(OCCCCCCCn4cc(CCCCCCCN5CCC(NC(=O)c6n[nH]cc6NC(=O)c6c(Cl)cccc6Cl)CC5)nn4)c3C2=O)C(=O)N1 (stereo unspecified)", "class.name": 1.0}
{"molecule": "O=C1CCC(N2C(=O)c3cccc(OCCCCn4cc(CCCCCCCCCCN5CCC(NC(=O)c6n[nH]cc6NC(=O)c6c(Cl)cccc6Cl)CC5)nn4)c3C2=O)C(=O)N1 (stereo unspecified)", "class.name": 1.0}
{"molecule": "O=C1CCC(N2C(=O)c3cccc(OCCCCCCCn4cc(CCCCCN5CCC(NC(=O)c6n[nH]cc6NC(=O)c6c(Cl)cccc6Cl)CC5)nn4)c3C2=O)C(=O)N1 (stereo unspecified)", "class.name": 1.0}
{"molecule": "O=C1CCC(N2C(=O)c3cccc(OCCCCCn4cc(CCCCN5CCC(NC(=O)c6n[nH]cc6NC(=O)c6c(Cl)cccc6Cl)CC5)nn4)c3C2=O)C(=O)N1 (stereo unspecified)", "class.name": 0.0}
